method: Evaluated for the solubility in water at 3.2 pH of filtered solution
Assay type: ADME
conditions: pH 3.2, read-out: S

| molecule | solubility [mg/mL] |
| --- | --- |
| CC(C)C[C@H](OC(=O)[C@H](Cc1csc(N)n1)NC(=O)[C@H](Cc1ccccc1)NS(=O)(=O)N1CCOCC1)C(O)[C@@H](N)CC1CCCCC1.Cl (stereo partly specified) | 20.9 |

====

method: Evaluated the half life period in CH3CN / buffer, pH 7.4 at 37 degree C
Assay type: ADME

| compound | half-life |
| --- | --- |
| CC(C)C[C@H](O)C(OC(=O)[C@H](Cc1csc(N)n1)NC(=O)[C@H](Cc1ccccc1)NS(=O)(=O)N1CCOCC1)[C@@H](N)CC1CCCCC1 (stereo partly specified) | 1 min |

====

method: Evaluated for the solubility in 0.10 N HCl at 1.7 pH of filtered solution
Assay type: ADME
conditions: pH 1.7, read-out: S
outcome-measure: solubility (mg/mL)

| compound | value |
| --- | --- |
| CC(C)C[C@H](OC(=O)[C@H](Cc1csc(N)n1)NC(=O)[C@H](Cc1ccccc1)NS(=O)(=O)N1CCOCC1)C(O)[C@@H](N)CC1CCCCC1.Cl (stereo partly specified) | 71.3 |

====

method: Evaluated for the solubility in pH 7.4 buffer suspended at 5 mg / mL at 7.4 pH of filtered solution
Type: ADME
Each entry below lists one item and its recorded solubility value.
outcome-measure: solubility (µg/mL)

| molecule | value |
| --- | --- |
| CC(C)C[C@H](O)C(O)[C@H](CC1CCCCC1)NC(=O)[C@H](Cc1csc(N)n1)NC(=O)[C@H](Cc1ccccc1)NS(=O)(=O)N1CCOCC1.Cl (some centres not stated) | 1 |
| CC(C)C[C@H](OC(=O)[C@H](Cc1csc(N)n1)NC(=O)[C@H](Cc1ccccc1)NS(=O)(=O)N1CCOCC1)C(O)[C@@H](N)CC1CCCCC1.Cl (some centres not stated) | 300 |

====

method: Evaluated for the solubility in 0.10 N HCl at 1.5 pH of filtered solution
Format: ADME
conditions: pH 1.5, read-out: S

| molecule | solubility |
| --- | --- |
| CC(C)C[C@H](O)C(OC(=O)[C@H](Cc1csc(N)n1)NC(=O)[C@H](Cc1ccccc1)NS(=O)(=O)N1CCOCC1)[C@@H](N)CC1CCCCC1.Cl (stereo partly specified) | 54.6 mg/mL |

====

method: Evaluated for the solubility in water at 5.8 pH of filtered solution
Assay type: ADME
conditions: pH 5.8, read-out: S
outcome-measure: solubility (µg/mL)

| molecule | outcome-measure | value |
| --- | --- | --- |
| CC(C)C[C@H](O)C(O)[C@H](CC1CCCCC1)NC(=O)[C@H](Cc1csc(N)n1)NC(=O)[C@H](Cc1ccccc1)NS(=O)(=O)N1CCOCC1 (stereo partly specified) | solubility | 2 |

====

method: Evaluated for the solubility in water at 3.3 pH of filtered solution
Format: ADME
conditions: pH 3.3, read-out: S
outcome-measure: solubility

| compound | value |
| --- | --- |
| CC(C)C[C@H](O)C(OC(=O)[C@H](Cc1csc(N)n1)NC(=O)[C@H](Cc1ccccc1)NS(=O)(=O)N1CCOCC1)[C@@H](N)CC1CCCCC1.Cl (stereo partly specified) | 17.6 mg/mL |

====

method: Evaluated for the solubility in pH 6.0 buffer suspended at 5 mg / mL at 6.0 pH of filtered solution
Format: ADME

| molecule | result-unit | solubility |
| --- | --- | --- |
| CC(C)C[C@H](O)C(O)[C@H](CC1CCCCC1)NC(=O)[C@H](Cc1csc(N)n1)NC(=O)[C@H](Cc1ccccc1)NS(=O)(=O)N1CCOCC1.Cl (some centres not stated) | µg/mL | 1 |
| CC(C)C[C@H](OC(=O)[C@H](Cc1csc(N)n1)NC(=O)[C@H](Cc1ccccc1)NS(=O)(=O)N1CCOCC1)C(O)[C@@H](N)CC1CCCCC1.Cl (some centres not stated) | µg/mL | 1940 |

====

method: Evaluated the half life period in distilled water at room temperature
Format: ADME

| compound | half-life |
| --- | --- |
| CC(C)C[C@H](O)C(OC(=O)[C@H](Cc1csc(N)n1)NC(=O)[C@H](Cc1ccccc1)NS(=O)(=O)N1CCOCC1)[C@@H](N)CC1CCCCC1 (stereo partly specified) | > 96 h |
